Origin of values: paper PMC5940854

test system: E. coli clinical isolates; assay: MIC on panel of E. coli clinical isolates; assay type: cell-based; conditions: strain SEC015
Quantity: MIC (µg/mL)

{"columns": ["Compound", "System Name", "Quantity", "Value Prefix", "Value Reported"],
 "data": [
  ["COc1cc(-c2csc(NC(=O)c3ccc([N+](=O)[O-])s3)n2)ccc1Cl", "E. coli clinical isolates", "MIC", "=", 8],
  ["C[C@@H](O)[C@H]1C(=O)N2C(C(=O)O)=C(S[C@@H]3CN[C@H](C(=O)N(C)C)C3)[C@H](C)[C@H]12 [meropenem, reference compound]", "E. coli clinical isolates", "MIC", ">", 4],
  ["CNC(C)C1CCC(N)C(OC2C(N)CC(N)C(OC3OCC(C)(O)C(NC)C3O)C2O)O1 (stereo not drawn) [gentamicin, reference compound]", "E. coli clinical isolates", "MIC", ">", 64],
  ["O=C(Nc1nc(-c2ccc(F)cc2F)cs1)c1ccc([N+](=O)[O-])s1", "E. coli clinical isolates", "MIC", "=", 32],
  ["O=C1CN(/N=C/c2ccc([N+](=O)[O-])o2)C(=O)N1 [nitrofurantoin, reference compound]", "E. coli clinical isolates", "MIC", "=", 20],
  ["O=C(Nc1nc(-c2ccc(F)cc2)cs1)c1ccc([N+](=O)[O-])s1", "E. coli clinical isolates", "MIC", "=", 0.5]
]}

----------
Readings of NfsB activity (rate of compound conversion) for the listed compounds
molecular target: NfsB (Escherichia coli, UniProt P38489); construct: His-tag; made in house; host or cells: E. coli BL21(DE3), pET28a (pET-nfsB); experiment: Nitroreductase activity assay, NfsB; format: biochemical, E. coli; conditions: 20 μM compound, 40 μM NADH, 70 nM NfsB; slope of initial velocity
Sequence (P38489 whole entry): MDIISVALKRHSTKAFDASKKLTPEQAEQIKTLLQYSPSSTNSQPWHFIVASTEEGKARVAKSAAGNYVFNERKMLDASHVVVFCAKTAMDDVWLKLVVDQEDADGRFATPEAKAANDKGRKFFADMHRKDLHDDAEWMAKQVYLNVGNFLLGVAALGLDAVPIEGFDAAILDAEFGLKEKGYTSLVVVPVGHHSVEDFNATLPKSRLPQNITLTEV
Quantity: NfsB activity (rate of compound conversion) (µM/min)

{"columns": ["Compound", "Value Reported"],
 "data": [
  ["O=C(Nc1nc(-c2ccc(F)cc2F)cs1)c1ccc([N+](=O)[O-])s1", 6.26],
  ["O=C(Nc1nc(-c2ccc(F)cc2)cs1)c1ccc([N+](=O)[O-])s1", 7.64],
  ["Cc1sc(NC(=O)c2ccc([N+](=O)[O-])s2)nc1-c1ccccc1", 6.17],
  ["N#Cc1ccc(-c2csc(NC(=O)c3ccc([N+](=O)[O-])s3)n2)cc1", 1.31],
  ["O=C1CN(/N=C/c2ccc([N+](=O)[O-])o2)C(=O)N1 [nitrofurantoin, reference compound]", 3.50],
  ["COc1cc(-c2csc(NC(=O)c3ccc([N+](=O)[O-])s3)n2)ccc1Cl", 3.50]
]}

----------
test system: E. coli clinical isolates; assay: MIC on panel of E. coli clinical isolates; assay type: cell-based; conditions: strain SEC025
Quantity: MIC (µg/mL)

{"columns": ["Molecule", "System Name", "Quantity", "Unit Descriptor", "Value Prefix", "Value Reported"],
 "data": [
  ["O=C(Nc1nc(-c2ccc(F)cc2)cs1)c1ccc([N+](=O)[O-])s1 [compound 15]", "E. coli clinical isolates", "MIC", "µg/mL", "=", 4],
  ["COc1cc(-c2csc(NC(=O)c3ccc([N+](=O)[O-])s3)n2)ccc1Cl [compound 20]", "E. coli clinical isolates", "MIC", "µg/mL", "=", 4],
  ["O=C1CN(/N=C/c2ccc([N+](=O)[O-])o2)C(=O)N1 [nitrofurantoin, reference compound]", "E. coli clinical isolates", "MIC", "µg/mL", "=", 40],
  ["CNC(C)C1CCC(N)C(OC2C(N)CC(N)C(OC3OCC(C)(O)C(NC)C3O)C2O)O1 (stereo not drawn) [gentamicin, reference compound]", "E. coli clinical isolates", "MIC", "µg/mL", ">", 64],
  ["C[C@@H](O)[C@H]1C(=O)N2C(C(=O)O)=C(S[C@@H]3CN[C@H](C(=O)N(C)C)C3)[C@H](C)[C@H]12 [meropenem, reference compound]", "E. coli clinical isolates", "MIC", "µg/mL", "=", 0.25],
  ["O=C(Nc1nc(-c2ccc(F)cc2F)cs1)c1ccc([N+](=O)[O-])s1 [compound 12]", "E. coli clinical isolates", "MIC", "µg/mL", "=", 2]
]}
